test.target: Cannabinoid receptor 2 (Homo sapiens, UniProt P34972)
Sequence (P34972 whole entry): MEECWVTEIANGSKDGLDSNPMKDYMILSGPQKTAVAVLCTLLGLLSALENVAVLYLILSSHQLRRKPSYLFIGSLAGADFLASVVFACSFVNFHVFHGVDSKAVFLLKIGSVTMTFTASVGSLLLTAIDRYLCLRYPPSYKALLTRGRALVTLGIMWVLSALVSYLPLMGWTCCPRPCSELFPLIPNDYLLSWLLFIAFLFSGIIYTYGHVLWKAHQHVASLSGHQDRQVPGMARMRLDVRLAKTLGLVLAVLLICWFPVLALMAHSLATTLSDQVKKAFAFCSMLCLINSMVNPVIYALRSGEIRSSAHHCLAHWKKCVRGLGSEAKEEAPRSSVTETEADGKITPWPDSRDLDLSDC
protocol: Binding Assay: Affinity binding tests were performed according to the experimental conditions described by M. Rinaldi-Carmona in J. Pharmacol. Exp. Therap. 1998, 287, 644-650, with membranes derived either from rodent tissues or from recombinant cell lines in which the human CB2 receptors were expressed (Munro et al., Nature 1993, 365, 61-65). The affinity of the compounds is expressed in the form of the IC50 (concentration causing 50% inhibition of specific binding of the tritiated ligand used in vitro).
pIC50: −log10 of the molar value.
# pIC50 >= 8 gives Criterion met, anything below gives Criterion not met

{"columns": ["chem.smiles", "test.target", "assigned.label"],
 "data": [
  ["COc1cccc(-c2nc(NCCc3ccc(F)cc3)nc(OC)n2)c1", "Cannabinoid receptor 2 (Homo sapiens, UniProt P34972)", "Criterion not met"],
  ["COc1nc(NCCc2ccc(OC(F)F)cc2)nc(-c2ccc(Cl)c(C(C)(C)O)c2)n1", "Cannabinoid receptor 2 (Homo sapiens, UniProt P34972)", "Criterion met"],
  ["COc1nc(NCCc2ccc(F)cc2)nc(-c2ccc(Cl)c(OCC(N)=O)c2)n1", "Cannabinoid receptor 2 (Homo sapiens, UniProt P34972)", "Criterion met"],
  ["COc1nc(NCCc2ccc(OC(F)F)cc2)nc(-c2ccc(Cl)c(OCCCNS(C)(=O)=O)c2)n1", "Cannabinoid receptor 2 (Homo sapiens, UniProt P34972)", "Criterion not met"],
  ["COc1nc(NCCc2ccc(OCF)cc2)nc(-c2ccc(Cl)c(C(C)(C)O)c2)n1", "Cannabinoid receptor 2 (Homo sapiens, UniProt P34972)", "Criterion met"],
  ["COc1nc(NCCc2ccc(F)cc2)nc(-c2ccc(OC)c(C(C)(C)O)c2)n1", "Cannabinoid receptor 2 (Homo sapiens, UniProt P34972)", "Criterion met"],
  ["COc1nc(NCCc2ccc(F)cc2)nc(-c2ccc(Cl)c(O)c2)n1", "Cannabinoid receptor 2 (Homo sapiens, UniProt P34972)", "Criterion not met"]
]}
